Across several publications, the following IC50 results were reported for PIK3CA (human) (UniProt P42336).

[Q] Recorded IC50 for Cn1cc(/C=C2\Oc3cccc(O)c3C2=O)c2c(N3CC4(C)CC3CC(C)(C)C4)ccnc21 (stereo not shown) , please?
[A] > 10000 nM

[Q] Please look up its IC50: COC(=O)Nc1cc(C(F)(F)F)c(-c2nc(N3CCOCC3)c3cc(CN4CCN(S(C)(=O)=O)CC4)cn3n2)cn1
[A] 2.84 nM

[Q] IC50 lookup needed for CN1CCN(c2ccnc3c2c(/C=C2\Oc4cccc(O)c4C2=O)cn3C)CC1 , thanks.
[A] 173 nM

[Q] Could you share which IC50 value was measured for O=C(NCCO)c1ccc(-c2cccc(Oc3cc(=O)[nH]c4ccccc34)c2)cc1 ?
[A] > 10000 nM

[Q] Suppose we examine the compound CN(C)CC(=O)N(C)[C@H]1CC[C@H](Nc2nc(N3CCOCC3)nc(-n3c(C(F)F)nc4ccccc43)n2)CC1 ; what IC50 value has been reported?
[A] 900 nM

[Q] What IC50 value was documented for this compound, CN1CCN(c2ncnc3ccc(-c4ccc5oc(N)nc5c4)cc23)CC1 ?
[A] < 100 nM

[Q] Fill in the blank: the reported IC50 of C[C@H](O)C(=O)N1CCC(n2nnc3cnc4ccc(-c5cnc(N)c(C(F)(F)F)c5)nc4c32)CC1 is ____.
[A] < 100 nM

[Q] I'd like to know its IC50. The compound in question is Nc1nc2cc(-c3ccc4ncc(C(=O)N5CC5)n4c3)ccc2o1
[A] < 1000 nM

[Q] Query (compound): COc1cccc(-c2nn(Cc3cc4cccc(C)c4c(=O)n3-c3ccccc3C)c3ncnc(N)c23)c1 ; field requested: IC50
[A] > 10000 nM

[Q] Please give the measured IC50 for this compound: C[C@@H](N)C(=O)N1CCN(c2cnc3ccc(-c4ccc5oc(N)nc5c4)nc3n2)CC1
[A] < 100 nM

[Q] Given the entry C=CC(=O)N1CCOc2ccc(-c3csc4c(=O)cc(N5CCN(C(=O)OC(C)(C)C)CC5)oc34)cc21 , report its measured IC50.
[A] 10000 to 30000 nM

[Q] Can you share its IC50? I mean this compound: Nc1nc2cc(-c3ccc4ncc(C(=O)N5CC(F)C5)n4c3)ccc2o1
[A] < 100 nM

[Q] Entry NC(=O)c1cccc(Nc2nc(-c3cccc(O)c3)nc3c2cnn3C2CCN(Cc3ccccc3)CC2)c1 : reported IC50 = ?
[A] 6020 nM

[Q] Looking for the measured IC50 of CCNc1nc2ncc(-c3ccc4c(c3)CN(C(=O)N3[C@@H]5CC[C@H]3C[C@](O)(C(F)(F)F)C5)CCO4)cc2[nH]1 , can you help?
[A] ≤ 75 nM

[Q] Report IC50 for OCc1cccc(-c2nc3c(N4CCOCC4)nc(N4CCOCC4)nc3[nH]2)c1 please.
[A] 10 nM

[Q] Need IC50 of COc1ncc(-c2ccc3ncc4nnc(-c5ccc(F)cc5)n4c3c2)cc1NS(C)(=O)=O , thanks.
[A] < 100 nM

[Q] I have this compound here, CCN(C(=O)COC)[C@H]1CC[C@H](CNc2nc(N3CCOCC3)cc(-n3c(C(F)F)nc4ccccc43)n2)CC1 , and I need its recorded IC50.
[A] 1500 nM

[Q] What does the data say about its IC50? Entry: Cc1ccccc1-n1c(Cn2nc(C#C[C@@H](C)O)c3c(N)ncnc32)cc2ccccc2c1=O
[A] > 10000 nM

[Q] Given the entry C[C@H](NC(=O)c1nc(-c2cccc(S(=O)(=O)N3CCCC3)c2)cnc1N)c1cc2cccc(Cl)c2c(=O)n1-c1ccccc1 , report its measured IC50.
[A] > 10000 nM

[Q] What value of measured IC50 is listed for CC(C)(O)[C@@H]1CCCN1C1CCC(CNc2cc(-n3c(C(F)F)nc4ccccc43)nc(N3CCOCC3)n2)CC1 (stereo partly shown) ?
[A] 4400 nM
